- target of assay: Guanine nucleotide-binding protein G(i) subunit alpha-1 (Homo sapiens)
- assay overview: qHTS Assay for Inhibitors of RGS12 GoLoco Motif Activity (Green Fluorophore) (AID 879)
- experimental parameters: Galphai1/FITC-RGS12 GoLoco peptide, fluorescence polarization; series mostly up to 57.1 µM
Active and inactive are the calls of the source. Calls follow the shape of the dose curve; as a rule, active = well fitted curve in the direction sought with a large enough effect; inconclusive = small, poorly fitted or top-dose-only effect, or another doubt; inactive = no such curve, though single readings can be large or run the other way.
Log the outcome using a class from true (active), false (inactive)

Completed entries (count: 5):
{"molecule": "C=CCN1CC[C@]23c4c5ccc(O)c4O[C@@H]2C(=O)CC[C@@]3(O)[C@H]1C5", "assigned category": "false"}
{"molecule": "C[C@H](N[C@@H](C)CCc1ccccc1)[C@H](O)c1ccc(O)cc1", "assigned category": "false"}
{"molecule": "C/C=C(\\C)C(=O)O[C@@H]1C(C)=C2[C@H]([C@@H]1OC(=O)CCCCCCC)[C@@](C)(OC(C)=O)C[C@@H](OC(=O)CCC)[C@@]1(O)[C@H]2OC(=O)[C@]1(C)O", "assigned category": "false"}
{"molecule": "O[C@@H]1CCCC[C@H]1N1CCC(c2ccccc2)CC1", "assigned category": "false"}
{"molecule": "N[C@@H](Cc1cc(O)c(O)cc1O)C(=O)O", "assigned category": "true"}

How was C[C@@]12C=CC(=O)C=C1CC[C@@H]1C2=CC[C@]2(C)[C@@H]1CC[C@H]2C(=O)CN1CCN(c2cc(N3CCCC3)nc(N3CCCC3)n2)CC1 classified in this test?
false

Write down the call the test reported for this molecule. Item: COc1ccc2c(c1)[C@]13CCCC[C@@H]1[C@H](C2)N(C)CC3
false

What outcome does the record of this test show for Ic1ccccc1CN[C@@H]1C2CCN(CC2)[C@H]1C(c1ccccc1)c1ccccc1 ?
false

Recorded call for CN[C@@H](C)[C@@H](O)c1ccccc1 ?
true

Call for entry C[C@H](N)c1cccc(Cl)c1Cl :
false

How did this test come out for CC(C)(O)[C@H]1[C@H]2OC(=O)[C@@H]1[C@]1(O)C[C@H]3O[C@]34C(=O)O[C@H]2[C@]14C (tested in a mixture with another compound) ?
false

Could you kindly confirm the outcome this assay logged for NC(=O)c1ccc(OC[C@H](O)CN2CC=C(c3ccc(F)cc3)CC2)cc1 ?
false

I would be grateful if you could indicate the recorded call for Oc1ccc2c3c1O[C@@H]1[C@@H](O)CC[C@]4(O)[C@H](C2)N(CC2CCC2)CC[C@@]314 .
false

Cited source for all entries: PubChem BioAssay (NCATS)
